test system: FCB (CQR strain of P. falciparum); assay: SYBR Green I antiplasmodial assay, strain FCB; format: cell-based, Plasmodium falciparum; conditions: Plasmodium falciparum, read-out: IC50 for FCB
pIC50: −log10 of the molar value.
endpointName: pIC50

>>> reportedmeasurement("CCN(CC)CCCC(C)Nc1ccnc2cc(Cl)ccc12 (stereo not shown) [CQ, chloroquine, reference compound]")
6.77

Every entry's value here was drawn from patent US20110045100A1.
